# SYSTEM NAME: Rvs167, P39743
# Sequence (P39743 419-482): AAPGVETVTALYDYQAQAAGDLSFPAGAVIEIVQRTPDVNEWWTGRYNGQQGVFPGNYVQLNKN
# ASSAY PROCEDURE: SPOT array
# COND: median of control spots 2707
METRIC: SPOT intensity

1. FIRKRAPTPPAPSRS; 4
2. RRSKSLPTTPGIRSG; 0
3. RVTRKRPREPKSTND; 0
4. STKKPRPPVKSKPKH; 12
